Experiment: Pharmacokinetic study after i.g. administration
Type: in vivo
Conditions: ICR-CD1, mouse, brain, po, 10 mg/kg, mice, 10 mg/kg i.g.; read-out: brain Tmax (converted)
metric: Tmax (h)
Give the number; h is assumed, so skip it.

## Task Any idea what its Tmax is? The compound is O[C@H](CNCC1CC1)[C@H](Cc1ccccc1)NC1c2ccccc2-c2ccccc21
## Result 3.33

---

Test: Cell viability, PrestoBlue (neurotoxicity)
Type: cell-based
Conditions: mouse; HT-22, 100 µM, 24 h, vs DMSO; read-out: viability, neurotoxicity X [%]
metric: viability at 24 h, 100 µM (%)
Express it in %; write the number only.

## Task Name the recorded viability at 24 h, 100 µM for O[C@H](CNCC1CC1)[C@H](Cc1ccccc1)NC1c2ccccc2-c2ccccc21 .
## Result 1.7

---

Assay: Cell viability, PrestoBlue (neurotoxicity)
Type: cell-based
Details: mouse; HT-22, 1 µM, 24 h; read-out: viability, neurotoxicity X [%]
metric: viability at 24 h, 1 µM (%)
Form entry: value (%) — number only.

## Task Which viability at 24 h, 1 µM is listed for O[C@H](CNCC1CC1)[C@H](Cc1ccccc1)NC1c2ccccc2-c2ccccc21 [Compound 6] ?
## Result 100

---

Assay: Pharmacokinetic study after i.p. administration
Assay type: in vivo
Settings: ICR-CD1, mouse, ip; mice, 10 mg/kg i.p., plasma
metric: MRT (h)
Expressed in h, but write only the number.

## Task Consider the molecule O[C@H](CNCC1CC1)[C@H](Cc1ccccc1)NC1c2ccccc2-c2ccccc21 and give its measured MRT.
## Result 3.62

---

Target: human serotonin 5-HT6 receptor (Homo sapiens)
Sequence (P50406 whole entry): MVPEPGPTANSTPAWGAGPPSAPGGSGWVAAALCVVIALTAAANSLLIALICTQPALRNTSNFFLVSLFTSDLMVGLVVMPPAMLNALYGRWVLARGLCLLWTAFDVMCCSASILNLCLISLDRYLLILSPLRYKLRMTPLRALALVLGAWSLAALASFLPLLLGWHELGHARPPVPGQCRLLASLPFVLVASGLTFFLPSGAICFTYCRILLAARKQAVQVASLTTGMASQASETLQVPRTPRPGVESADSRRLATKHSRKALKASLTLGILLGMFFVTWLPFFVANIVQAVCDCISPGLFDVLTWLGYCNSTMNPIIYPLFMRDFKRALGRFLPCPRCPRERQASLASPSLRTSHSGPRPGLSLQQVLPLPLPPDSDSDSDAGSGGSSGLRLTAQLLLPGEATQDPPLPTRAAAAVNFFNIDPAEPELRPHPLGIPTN
Test: cAMP 5-HT6 functional assay
metric: pEC50
Scale: negative log10 of molar concentration, which is what pEC50 denotes.

## Task Please report the recorded pEC50 for O[C@H](CNCC1CC1)[C@H](Cc1ccccc1)NC1c2ccccc2-c2ccccc21 .
## Result 5.62

---

Assay: Acute toxicity study i.p. (MTD, biochemistry, histopathology)
Assay type: in vivo, mice
Details: both sexes, ICR-CD1, mouse, in vivo, ip, male and female mice; read-out: maximal tolerated dose (MTD)
metric: MTD at 48 h (mg/kg)
State just the number; it will be interpreted in mg/kg.

## Task Item O[C@H](CNCC1CC1)[C@H](Cc1ccccc1)NC1c2ccccc2-c2ccccc21 [Compound 6] has what recorded MTD at 48 h?
## Result 10

---

Molecular target: mGAT1 (Mus musculus, UniProt P31648)
Test: [3H]GABA uptake assay, mGAT1
Format: cell-based
Conditions: GABA uptake assay; read-out: mGAT1 IC50
Readings of pIC50 for the listed compounds
On this scale, pIC50 is minus log10 of a concentration expressed in M (mol/L).

Examples with answers:
compound_structure_string=CC(C)(C)c1cccc(CNC[C@@H](O)[C@H](Cc2ccccc2)NC2c3ccccc3-c3ccccc32)c1 recorded_result=4.83
compound_structure_string=O[C@H](CNCc1ccccc1)[C@H](Cc1ccccc1)NC1c2ccccc2-c2ccccc21 recorded_result=4.96
compound_structure_string=COc1cccc(CNC[C@H](O)[C@H](Cc2ccccc2)NC2c3ccccc3-c3ccccc32)c1 recorded_result=5.13

Now, please, on to the next compound.
## Task Fill in the blank: the reported pIC50 of COc1ccccc1CNC[C@H](O)[C@H](Cc1ccccc1)NC1c2ccccc2-c2ccccc21 is ____.
## Result 5.20
